FYI, the data here is from patent US20210292392A1.

Some binders, each annotated with its measured IC50, Pesudovirus neutralization.
System tested: full length spike (S) protein of SARS-CoV-2 (SARS-CoV-2, UniProt P0DTC2 14-1273)
Assay comment: cell-based or functional assay
Numeric only. Scale: µg/mL

// solved cases for IC50, Pesudovirus neutralization follow
>  <Binder>
P5A-1D10 (antibody, human IgG1, lambda, V domains shown) VH: QVQLVESGGGLVKPGGSLRLSCAASQFTFSDYSMTWIRQAPGKGLEWVSYISQSGSTIYYADSVKGRFTISRDNAKNSLYLQMNSLRAEDTAVYYCARGVSPSYVWGSYRSLYHFDYWGQGTLVTVSS VL: QSALTQPASVSGSPGQSITISCTGTSSDVGGYNYVSWYQQHPGKAPKLMIYDVSNRPSGVSNRFSASKSGNTASLTISGLQAEDEADYYCSSFTSSTTVVVFGGGTKLTVLG

>  <IC50, Pesudovirus neutralization, µg/mL>
5.72

$$$$
>  <Binder>
P1A-1C10 (antibody, V domains shown, human IgG1, kappa) VH: QVQLVQSGAEVKNPGSSVKVSCKAGGGTSSFYDINWVRQAPGQGLEWIGKIIPRLDIADYAQKSQGRVTITADKSTSTVYLELSSLKSDDTAVYFCARGRPGSEWAYGPFDLWGQGTLVTVSS VL: DIQMTQSPSTLSASVGDRVTITCRASQSSRAWLAWYQQKPGKAPKLLISKASSLESGVPSRFSGSGYGTEFTLTISSLQPDDSATYYCHQYNSSPFTFGPGTKVQIKR

>  <IC50, Pesudovirus neutralization, µg/mL>
21.5

$$$$

Entry P5A-2G9 (antibody, human IgG1, lambda, V domains shown) VH: QVQLVESGGGVVQPGRSLRLSCAASGFTFSSYGMHWVRQAPGKGLEWVAVIWYDGSNKYYADSVKGRFTISRDNSKNTLYLQMNSLRAEDTAVYYCARWFHTGGYFDYWGQGTLVTVSS VL: QPVLTQPPSSSASPGESARLTCTLPSDINVSSYNIYWYQQKPGSPPRYLLYYYSDSDKGQGSGVPSRFSGSKDASANTGILLISGLQSEDEADYYCMIWPSNALYVFGTGTKVTVLG needs its IC50, Pesudovirus neutralization filled in; supply it.
0.0158

Supply IC50, Pesudovirus neutralization value. Item: P5A-3A6 (antibody, human IgG1, lambda, V domains shown) VH: EVQLVESGGGLVQPGRSLRLSCAASGFTFDDYAMHWVRQAPGKGLEWVSGISWNSGTIGYADSVKGRFIISRDNAKNSLYLQMNSLRAEDTALYYCAGGGTMVRGVIAGGGTHPVDDYYGMDVWGQGTTVTVSS VL: QSALTQPASVSGSPGQSITISCTGTSSDVGGYNYVSWYQQHPGKAPKLMIYDVSNRPSGVSNRFSGSKSGNTASLTISGLQAEDEADYYCSSYTSSSTVVFGGGTKLTVLG
0.234
